Biological target: T1, rat collagen (acid soluble, type I, rat tail, Upstate 08-115) (rat, UniProt P02454 152-1207; P02466 86-1125)
T1 construct: also called dried rat collagen; insoluble rat collagen
T1 sequence (P02454 152-1207 limits assumed, chain 1 of 2): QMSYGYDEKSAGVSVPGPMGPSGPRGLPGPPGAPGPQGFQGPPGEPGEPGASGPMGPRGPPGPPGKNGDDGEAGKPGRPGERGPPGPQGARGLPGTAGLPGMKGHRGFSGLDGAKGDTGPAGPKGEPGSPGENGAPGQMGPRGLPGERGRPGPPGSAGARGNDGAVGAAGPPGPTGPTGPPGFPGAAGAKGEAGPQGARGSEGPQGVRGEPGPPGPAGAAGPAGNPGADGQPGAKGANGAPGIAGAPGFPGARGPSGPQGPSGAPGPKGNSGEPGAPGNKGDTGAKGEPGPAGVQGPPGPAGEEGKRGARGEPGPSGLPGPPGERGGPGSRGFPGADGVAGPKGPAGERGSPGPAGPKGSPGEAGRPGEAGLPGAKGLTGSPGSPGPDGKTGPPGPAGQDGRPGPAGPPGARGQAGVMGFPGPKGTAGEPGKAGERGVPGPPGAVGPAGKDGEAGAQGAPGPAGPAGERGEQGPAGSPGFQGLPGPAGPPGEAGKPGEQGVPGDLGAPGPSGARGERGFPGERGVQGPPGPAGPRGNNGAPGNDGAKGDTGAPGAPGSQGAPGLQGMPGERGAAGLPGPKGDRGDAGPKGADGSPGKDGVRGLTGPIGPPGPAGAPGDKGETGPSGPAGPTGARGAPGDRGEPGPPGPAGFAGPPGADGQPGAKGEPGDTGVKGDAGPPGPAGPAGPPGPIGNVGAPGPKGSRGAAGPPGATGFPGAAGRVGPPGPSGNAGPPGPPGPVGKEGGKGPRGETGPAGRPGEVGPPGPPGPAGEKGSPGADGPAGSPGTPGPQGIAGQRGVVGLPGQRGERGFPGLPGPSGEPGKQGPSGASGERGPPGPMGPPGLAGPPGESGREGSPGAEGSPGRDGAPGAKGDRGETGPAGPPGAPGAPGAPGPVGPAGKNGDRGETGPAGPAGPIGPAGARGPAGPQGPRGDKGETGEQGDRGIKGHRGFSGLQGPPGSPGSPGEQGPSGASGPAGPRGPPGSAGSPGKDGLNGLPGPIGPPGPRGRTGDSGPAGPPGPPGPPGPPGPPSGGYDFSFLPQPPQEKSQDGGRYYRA
T1 sequence (P02466 86-1125 limits assumed, chain 2 of 2): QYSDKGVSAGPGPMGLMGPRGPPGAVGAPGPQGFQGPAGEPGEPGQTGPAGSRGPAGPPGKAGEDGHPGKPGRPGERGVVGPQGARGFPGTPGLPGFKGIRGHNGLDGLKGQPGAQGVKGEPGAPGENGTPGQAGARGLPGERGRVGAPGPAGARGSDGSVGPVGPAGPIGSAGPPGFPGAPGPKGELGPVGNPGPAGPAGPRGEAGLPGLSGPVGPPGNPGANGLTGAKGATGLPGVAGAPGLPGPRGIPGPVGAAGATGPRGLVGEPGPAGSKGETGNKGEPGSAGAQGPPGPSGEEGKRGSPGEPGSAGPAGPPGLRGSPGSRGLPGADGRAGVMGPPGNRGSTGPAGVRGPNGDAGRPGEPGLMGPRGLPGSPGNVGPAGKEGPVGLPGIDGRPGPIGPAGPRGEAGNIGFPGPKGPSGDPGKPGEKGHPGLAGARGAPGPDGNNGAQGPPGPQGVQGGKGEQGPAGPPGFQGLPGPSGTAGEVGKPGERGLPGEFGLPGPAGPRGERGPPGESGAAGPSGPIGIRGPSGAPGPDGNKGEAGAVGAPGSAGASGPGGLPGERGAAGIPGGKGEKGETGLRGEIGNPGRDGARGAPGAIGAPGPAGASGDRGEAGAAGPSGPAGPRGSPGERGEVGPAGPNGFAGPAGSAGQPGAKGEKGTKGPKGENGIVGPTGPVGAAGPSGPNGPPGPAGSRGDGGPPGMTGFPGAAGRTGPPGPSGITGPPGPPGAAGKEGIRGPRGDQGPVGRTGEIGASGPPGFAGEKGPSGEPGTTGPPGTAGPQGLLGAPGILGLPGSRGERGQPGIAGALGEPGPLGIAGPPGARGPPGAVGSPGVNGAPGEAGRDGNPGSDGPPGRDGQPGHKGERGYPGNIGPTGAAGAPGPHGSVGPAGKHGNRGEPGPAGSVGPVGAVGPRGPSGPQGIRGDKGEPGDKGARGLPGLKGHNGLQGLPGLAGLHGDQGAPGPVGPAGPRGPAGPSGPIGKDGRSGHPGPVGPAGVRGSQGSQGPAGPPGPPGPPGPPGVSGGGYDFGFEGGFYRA
Assay: dried collagen assay
Bridge positions count the residues as written; N and C are the ends. Ends that are not written are not given here.
TEST_READOUT: % bound (%)

DWTCSGDHLTWHCNYG (disulfide 4-13 (inferred)) [SEQ ID NO: 116]
35
WTCSGDEYTWHCNYE (disulfide 3-12 (inferred)) [SEQ ID NO: 114]
14
DWTCSGDHLTWKCNYG (disulfide 4-13 (inferred)) [SEQ ID NO: 117]
24
DWTCSGDEFTWHCNYE (disulfide 4-13 (inferred)) [SEQ ID NO: 119]
55

A: DWTCSGDPYTWHCNYE (disulfide 4-13 (inferred)) [SEQ ID NO: 115]
B: DWTCSGNHLTWYCNYG (disulfide 4-13 (inferred)) [SEQ ID NO: 118]
q: Lab notebook, comparison: A versus B , higher % bound goes to which? Refer to your chosen entry by its label in the reply.
a: B
